- System: SR leukemia
- assay: NCI tumour cell line growth inhibition, 48 h
*1 amine or outer side, *2 acyl side, *3 side chain or, on linkers, in order; H or OH if unused. Where a SMILES comes first, the peptide text is derived from it. Bridges are numbered along the chain shown (N, C = ends). [ ]: non-standard residue; d: D form. ξ: configuration not given here. X35 = CC[C@H](C)[C@@H](N[*:1])[C@@H](O)CC(=O)O[C@H](C(=O)[C@H](C)C(=O)[*:2])C(C)C; NMeY = CN[C@@H](Cc1ccc(O)cc1)C(=O)O; dNMeL = CN[C@H](CC(C)C)C(=O)O; ξΔPro = O=C(O)C1C=CCN1
Measured TGI values are reported for all entries that follow.

Worked examples, 10 compounds total:
[
  {
    "compound": "COC(=O)C1CC23C=CCN4CC(C2C)C2(c5ccccc5NC12)C43 (stereo unspecified)",
    "TGI": "> 100 µM"
  },
  {
    "compound": "CC(=O)Nc1ccc(/C=C2/NC(=S)N(/C=C3\\C(=O)Oc4ccccc4C3=O)C2=O)cc1",
    "TGI": "> 100 µM"
  },
  {
    "compound": "Cc1cccc(N=C2NC(=O)C(CC(=O)Nc3ccc(C)cc3C)S2)c1 (stereo unspecified)",
    "TGI": "> 100 µM"
  },
  {
    "compound": "Cc1nc2cccc(F)c2c(=O)n1-c1nnc(C(F)(F)F)s1",
    "TGI": "> 10 µM"
  },
  {
    "compound": "CC[C@H](C)[C@H]1NC(=O)[C@@H](NC(=O)[C@@H](CC(C)C)N(C)C(=O)C2C=CCN2)[C@@H](C)OC(=O)[C@H](Cc2ccc(OC)cc2)N(C)C(=O)[C@@H]2CCCN2C(=O)[C@H](CC(C)C)NC(=O)[C@@H](C)C(=O)[C@H](C(C)C)OC(=O)C[C@@H]1O (stereo partly specified) (H-[ξΔPro][dNMeL]T[X35]LP[NMeY](Me); ester 3-C)",
    "TGI": "2.54 µM"
  },
  {
    "compound": "C=CCOC1(CC=C)C(=O)OC2C(O)COC21O (stereo unspecified)",
    "TGI": "> 100 µM"
  },
  {
    "compound": "CCN(CC)C1Oc2cc3c(cc2C(c2cc(OC)c(OC)c(OC)c2)C1C)OCO3 (stereo unspecified)",
    "TGI": "5.01 µM"
  },
  {
    "compound": "O=c1[nH]c2cc([N+](=O)[O-])c(Nc3c4ccccc4nc4ccccc34)c([N+](=O)[O-])c2[nH]1",
    "TGI": "4.36 µM"
  },
  {
    "compound": "CC[C@@]12C=CCN3CC[C@]4(c5cc(NC(=O)COc6cc(OCC(=O)Nc7cc8c(cc7OC)N(C)[C@H]7[C@@](O)(C(=O)OC)[C@H](OC(C)=O)[C@]9(CC)C=CCN%10CC[C@]87[C@@H]%109)cc7oc(-c8ccccc8)cc(=O)c67)c(OC)cc5N(C)[C@@H]4[C@](O)(C(=O)OC)[C@H]1OC(C)=O)[C@H]32",
    "TGI": "> 100 µM"
  },
  {
    "compound": "COc1cc2oc(=O)cc(C)c2cc1OC",
    "TGI": "> 100 µM"
  }
]

Pending compound:
### Prompt # query: TGI of entry "CS(=O)(=O)NNS(=O)(=O)c1ccc(Cl)cc1"
### Response > 100 µM

###

- Tested on: NCI-H522 lung
- assay: NCI tumour cell line growth inhibition, 48 h; in the data active = GI50 below about 0.43 µM; inactive = the rest
Your answer must be one of the following: True (active), False (inactive)

### Prompt Tell me the recorded outcome of this test for "COC(=O)[C@H]1[C@H]2C[C@@H]3c4[nH]c5cc(OC)ccc5c4CCN3C[C@H]2C[C@@H](OC(=O)/C=C/c2cc(OC)c(OC)c(OC)c2)[C@@H]1OC" .
### Response False

### Prompt Tell me the recorded outcome of this test for "CC(=O)c1cc(-c2ccccc2N)n(-c2ccc3c(c2)OCO3)c1C" .
### Response True

### Prompt Tell me the recorded outcome of this test for CC12CC=CCC1CCC1C2CCC2(C)C(c3ccc(=O)oc3)CCC12O (stereo unspecified) .
### Response True

###

- Tested on: IGROV1 ovarian
- assay: NCI tumour cell line growth inhibition, 48 h
measured.property: TGI

Worked examples, 2 molecules total:
[
  {
    "molecule": "NNC(=O)Cn1ccnn1",
    "assayed.system": "IGROV1 ovarian",
    "measured.property": "TGI",
    "experimental.value": "> 100 µM"
  },
  {
    "molecule": "COc1cc(/C=C2\\CC3C4CC=C5C[C@@H](O)CC[C@]5(C)C4CC[C@]3(C)C2=O)ccc1OCCCn1ccnc1 (stereo not given in full)",
    "assayed.system": "IGROV1 ovarian",
    "measured.property": "TGI",
    "experimental.value": "52.8 µM"
  }
]

Pending molecule:
### Prompt # query: TGI of entry "Cc1nc(Nc2nc3ccccc3[nH]2)nc(Cl)c1CCCl"
### Response > 100 µM

###

- Tested on: K-562 leukemia
- assay: NCI tumour cell line growth inhibition, 48 h; in the data active = GI50 below about 0.43 µM; inactive = the rest
Your answer must be one of the following: active, inactive

The following compounds have reported results that may help.
[
  {
    "compound": "C/C(=C(/c1ccc(O)cc1)c1ccc(Cl)cc1)c1ccccc1",
    "cat": "inactive"
  },
  {
    "compound": "CC(=O)c1cccc(-c2cccc(-c3ccn(CCN4CCOCC4)n3)c2)c1",
    "cat": "inactive"
  },
  {
    "compound": "CNCCNc1nc2ccccc2c2c(=O)c3cc(F)ccc3sc12",
    "cat": "inactive"
  }
]

### Prompt Tell me the recorded outcome of this test for "COc1ccc(/C=C\c2cc(OC)c(OC)c(OC)c2)c(NS(=O)(=O)c2ccc(Cl)cc2)c1O" .
### Response active

### Prompt Tell me the recorded outcome of this test for "O=C(N/N=C/c1ccc(Cl)cc1)c1[nH]c2ccc(Cl)cc2c1-c1ccccc1" .
### Response active

### Prompt Tell me the recorded outcome of this test for "COC(=O)c1ccc2c(c1)C(=O)c1c-2n(CCCN)c(=O)c2cc(OC)c(OC)cc12" .
### Response inactive

### Prompt Tell me the recorded outcome of this test for "N=c1ccc2nc3c(cc(N)c4ccccc43)oc-2c1" .
### Response active

### Prompt Tell me the recorded outcome of this test for "COc1cc(/C=C2\CN(C(=O)CCN3CCC(=NO)CC3)C/C(=C\c3cc(OC)c(OC)c(OC)c3)C2=O)cc(OC)c1OC" .
### Response active

### Prompt Tell me the recorded outcome of this test for "COc1cc2c(c(OC)c1OC)-c1ccc(O)c(=O)cc1[C@@H](NC(C)=O)CC2" .
### Response inactive

### Prompt Tell me the recorded outcome of this test for "CCCCN(CC)c1ncnc2ccc(Br)cc12" .
### Response inactive

### Prompt Tell me the recorded outcome of this test for CS(=O)(=O)[O-].CS(=O)(=O)[O-].NC1CCCCC1N.[Pt+4] (stereo not drawn) .
### Response inactive

### Prompt Tell me the recorded outcome of this test for "CCN(CC)CCOc1c(OC)c(Br)cc2c(C)c(C(=O)OC)oc12" .
### Response active

### Prompt Tell me the recorded outcome of this test for "COc1ccc(NC(=O)n2nc(/C=C\c3ccc(O)c(OC)c3)cc2/C=C\c2ccc(O)c(OC)c2)cc1" .
### Response inactive

###

- Test system: MOLT-4 leukemia
- assay: NCI tumour cell line growth inhibition, 48 h; in the data active means GI50 below about 0.43 µM; inactive means the rest
Your answer must be one of the following: active, inactive

[
  {
    "compound": "Clc1ccc2c(c1)C(N1CCNCC1)=Nc1ccccc1O2",
    "assayed.system": "MOLT-4 leukemia",
    "cat": "inactive"
  },
  {
    "compound": "CCC[CH2][Sn]1([CH2]CCC)[O]C(=O)c2ccc(N)cc2[O]1",
    "assayed.system": "MOLT-4 leukemia",
    "cat": "active"
  },
  {
    "compound": "CCCCCCNC(=O)Oc1ccc(/C(=C(/C)Cc2ccc(OC)cc2)c2ccc(OCCN(C)C)cc2)cc1",
    "assayed.system": "MOLT-4 leukemia",
    "cat": "inactive"
  },
  {
    "compound": "CCCCNC(=O)Oc1ccc(/C(=C(/CC)Cc2ccccc2)c2ccc(OCCN3CCCCCC3)cc2)cc1",
    "assayed.system": "MOLT-4 leukemia",
    "cat": "inactive"
  },
  {
    "compound": "CNCCNc1nc2ccccc2c2c(=O)c3cc(F)ccc3sc12",
    "assayed.system": "MOLT-4 leukemia",
    "cat": "inactive"
  }
]

### Prompt Tell me the recorded outcome of this test for CCC1(OC(=O)CN)C(=O)OCc2c1cc1n(c2=O)Cc2cc3cc4c(cc3nc2-1)OCO4 (stereo not given) .
### Response active

### Prompt Tell me the recorded outcome of this test for "COC(=O)c1ccc(CN2C(=O)C(Cl)=C(Nc3ccc(OC)c(Cl)c3)C2=O)cc1" .
### Response inactive

### Prompt Tell me the recorded outcome of this test for "Cc1nn(CNc2ccccc2C(F)(F)F)c(=S)n1/N=C/c1ccc(F)cc1" .
### Response inactive

### Prompt Tell me the recorded outcome of this test for "CC(C)(C)n1cc(-c2ccnc(NCCCNS(=O)(=O)c3ccc(Br)cc3)c2)c(-c2cccc(O)c2)n1" .
### Response inactive

### Prompt Tell me the recorded outcome of this test for "Cn1cc(C2=C(c3cn(C)c4cc(N)ccc34)C(=O)NC2=O)c2ccccc21" .
### Response inactive

Data provenance is PubChem BioAssay (NCI).
